Data origin: PubChem BioAssay (NCI)

growth by entry:
- Test system: HOP-62 NSCLC
- experiment: NCI-60 one-dose screen, 48 h (100 = growth as untreated, 0 = no growth, -100 = all killed)
- protocol conditions: 10 µM unless noted
This is part of a sample that, as a whole, favours compounds with a hit. Of some 83,000 tested, about 20% had one in any assay. Activity calls are given as the source filed them. Rule for the calls: active = growth percent below 10; inactive = the rest.

The cases that follow already have their growth on record.
| compound | test system | growth |
| --- | --- | --- |
| COc1ccc(C(=O)CC(c2ccccc2)C(C#N)c2ccccc2)cc1 (stereo not given) | HOP-62 NSCLC | 98.3% (inactive) |
| Cc1cc(-c2cc(C)c(O)c(C)c2)cc(C)c1O | HOP-62 NSCLC | 73.9% (inactive) |
| O=C(O)CCCl | HOP-62 NSCLC | 105% (inactive) |

growth lookup needed for CC1CCC(C(C)C)C(NNC(N)=O)C1 (stereo not given) , thanks.
100% (inactive)

Next: `C/C(=C\c1ccccc1)c1ccccn1`
105% (inactive)

###

growth by entry:
- System: HOP-92 NSCLC
- experiment: NCI-60 one-dose screen, 48 h (100 = growth as untreated, 0 = no growth, -100 = all killed)
- protocol conditions: 10 µM
This is part of a sample that, as a whole, favours compounds with a hit. Of some 83,000 tested, about 20% had one in any assay.
I only need the number, in %, no unit after it.

| compound | quantity unit | growth |
| --- | --- | --- |
| NC(Cc1c[nH]c2ccccc12)C(=O)O (stereo unspecified) | % | 75.5 |

Recorded growth for `CCN(CCNS(C)(=O)=O)c1ccc(N)c(C)c1` with HOP-92 NSCLC, please?
84.4

Next: `c1ccc(CNCCNCc2ccccc2)cc1`
80.6

Next: `CC[C@H](CC[C@@H](C)[C@H]1CC[C@H]2[C@@H]3CC=C4C[C@@H](O)CC[C@]4(C)[C@H]3CC[C@]12C)C(C)C`
83.5

Next: `O=C(O)/C=C\C(=O)Nc1cccc2ccccc12`
115

Next: `Nc1ccc2c(O)cc(S(=O)(=O)O)cc2c1`
80.9

###

- System: SF-295 CNS
- experiment: NCI-60 one-dose screen, 48 h (100 = growth as untreated, 0 = no growth, -100 = all killed)
- protocol conditions: 10 µM unless noted
Compounds without any hit were thinned out: in the full panel of roughly 83,000, 20% have a hit.
growth by entry:
I only need the number, in %, no unit after it.

growth lookup needed for `Cn1cnc([N+](=O)[O-])c1Sc1ncn[nH]1` , thanks.
116

Next: `CC1(C)COC(=S)N1`
98.4

Next: `Brc1ccc(SSc2ccc(Br)cc2)cc1`
52.2

Next: COc1ccc(C(=O)CC(c2ccccc2)C(C#N)c2ccccc2)cc1 (stereo unspecified)
96.3

Next: `O=[N+]([O-])c1cccc(SSc2cccc([N+](=O)[O-])c2)c1`
108

Next: `c1ccc(CNCCNCc2ccccc2)cc1`
90.8

###

growth by entry:
- Test system: DU-145 prostate
- experiment: NCI-60 one-dose screen, 48 h (100 = growth as untreated, 0 = no growth, -100 = all killed)
- protocol conditions: 10 µM unless noted
About 83,000 compounds went through this panel and 20% of them were active in at least one assay; those are over-represented in the sample as a whole.
I only need the number, in %, no unit after it.

The cases that follow already have their growth on record.
| compound | test system | quantity unit | growth |
| --- | --- | --- | --- |
| c1ccc(CNCCNCc2ccccc2)cc1 | DU-145 prostate | % | 114 |
| OCC1OC(O)C(O)C(O)C1O (centres undefined) | DU-145 prostate | % | 120 |

Recorded growth for `Cc1cc(-c2cc(C)c(O)c(C)c2)cc(C)c1O` with DU-145 prostate, please?
104

Next: NN1CCOC(c2ccccc2)C1 (centres undefined)
102

Next: `Nc1nc(N)c2[nH]cnc2n1`
73.1

###

- Tested on: PC-3 prostate
- experiment: NCI-60 one-dose screen, 48 h (100 = growth as untreated, 0 = no growth, -100 = all killed)
- protocol conditions: 10 µM unless noted
Compounds without any hit were thinned out: in the full panel of roughly 83,000, 20% have a hit.
Assign class 1 whenever growth does not fall below 90%; assign class 0 whenever it does.

| molecule | test system | category |
| --- | --- | --- |
| CCCCNc1ccc(Nc2ccccc2)cc1 | PC-3 prostate | class 0 |
| CC(C)(O)C(=O)O | PC-3 prostate | class 1 |
| O=c1n(CC2CO2)c(=O)n(CC2CO2)c(=O)n1CC1CO1 (configuration not stated) | PC-3 prostate | class 0 |
| O=[N+]([O-])c1cccc(SSc2cccc([N+](=O)[O-])c2)c1 | PC-3 prostate | class 0 |
| O=C(Cc1ccccc1)c1ccc(O)c(Cl)c1 | PC-3 prostate | class 0 |
| CC1CCC2(OC1)OC1CC3C4CC=C5CC(O)CCC5(C)C4CCC3(C)C1C2C (configuration not stated) | PC-3 prostate | class 1 |
| CN(C)CC1CCCCCC(CN(C)C)C1=O (configuration not stated) | PC-3 prostate | class 0 |
| Brc1ccc(SSc2ccc(Br)cc2)cc1 | PC-3 prostate | class 0 |

Confirm if growth reported for the molecule `CC(C)NC(=O)N/C=C(\C#N)C(N)=O` is 90% or above.
class 1

Next: `COc1ccc(Nc2ccc3ccccc3c2)cc1`
class 0

Next: `O=C(/C=C/c1ccccc1)c1ccccc1`
class 1

Next: `O=C(O)CCCl`
class 1

Next: COc1ccc(C(=O)CC(c2ccccc2)C(C#N)c2ccccc2)cc1 (configuration not stated)
class 0

Next: `CCCCOc1ccc(Nc2cc(Cl)ccc2C(=O)O)cn1`
class 1

Next: `COc1ccc2cc1Oc1ccc(cc1)C[C@H]1c3cc(c(OC)cc3CCN1C)Oc1c(OC)c(OC)cc3c1[C@H](C2)N(C)CC3`
class 0

Next: `Cc1ccc(S(=O)(=O)c2ccccc2)cc1`
class 0

Next: NN1CCOC(c2ccccc2)C1 (configuration not stated)
class 1

Next: `OCCN1CCCCCCC1`
class 1

Next: COc1cc(C(O)C2C(=O)OCC2C2(c3ccc4c(c3)OCO4)SCCCS2)cc(OC)c1OC (configuration not stated)
class 0

Next: CC(=O)OC(C)C(=O)NCC(C)O (configuration not stated)
class 1

Next: CCCCCCCCCCCCCCCc1ccc(N)c(OC2OC(CO)C(O)C(O)C2O)c1 (configuration not stated)
class 0

Next: `C#CCOC(=O)Nc1ccccc1`
class 1

###

- System: HOP-62 NSCLC
- experiment: NCI-60 one-dose screen, 48 h (100 = growth as untreated, 0 = no growth, -100 = all killed)
- protocol conditions: 10 µM unless noted
This is part of a sample that, as a whole, favours compounds with a hit. Of some 83,000 tested, about 20% had one in any assay.
measurement name: growth (%)
I only need the number, in %, no unit after it.

The cases that follow already have their growth on record.
| compound | quantity unit | measurement |
| --- | --- | --- |
| CC(=O)NCC(=O)c1ccc([N+](=O)[O-])cc1 | % | 95.8 |
| O=C(CO)C(O)C(O)C(O)C(O)CO (centres undefined) | % | 105 |
| COc1ccc(Nc2ccc3ccccc3c2)cc1 | % | 67.9 |
| N#CC(C#N)N=Nc1cc(Cl)ccc1Cl | % | 104 |
| O=c1n(CC2CO2)c(=O)n(CC2CO2)c(=O)n1CC1CO1 (centres undefined) | % | 57 |

growth lookup needed for `CC1(C)COC(=S)N1` , thanks.
99.8

Next: `Brc1ccc(SSc2ccc(Br)cc2)cc1`
75.3

Next: NN1CCOC(c2ccccc2)C1 (centres undefined)
99.6

###

- Tested on: OVCAR-5 ovarian
- experiment: NCI-60 one-dose screen, 48 h (100 = growth as untreated, 0 = no growth, -100 = all killed)
- protocol conditions: 10 µM unless noted
About 83,000 compounds went through this panel and 20% of them were active in at least one assay; those are over-represented in the sample as a whole.
growth by entry:
I only need the number, in %, no unit after it.

The cases that follow already have their growth on record.
| compound | measurement name | quantity unit | measurement |
| --- | --- | --- | --- |
| Cc1cc2ccccc2cn1 | growth | % | 107 |
| Cc1cc(-c2cc(C)c(O)c(C)c2)cc(C)c1O | growth | % | 95.6 |
| OCCN1CCCCCCC1 | growth | % | 109 |
| COc1ccc(C(=O)CC(c2ccccc2)C(C#N)c2ccccc2)cc1 (stereo not drawn) | growth | % | 110 |
| CC(C)NC(=O)N/C=C(\C#N)C(N)=O | growth | % | 92.5 |
| Nc1ncnc2c1ncn2C1OC(COP(=O)(O)O)C(O)C1O (stereo not drawn) | growth | % | 108 |

growth lookup needed for `C#CCOC(=O)Nc1ccccc1` , thanks.
95.8
